src = patent US20250258178A1

Experimental target: T1, human histidine-rich glycoprotein (HRG), purified from human plasma (human, UniProt P04196 19-525)
T1 construct: also called human purified HRG; human purified HRG protein
T1 sequence: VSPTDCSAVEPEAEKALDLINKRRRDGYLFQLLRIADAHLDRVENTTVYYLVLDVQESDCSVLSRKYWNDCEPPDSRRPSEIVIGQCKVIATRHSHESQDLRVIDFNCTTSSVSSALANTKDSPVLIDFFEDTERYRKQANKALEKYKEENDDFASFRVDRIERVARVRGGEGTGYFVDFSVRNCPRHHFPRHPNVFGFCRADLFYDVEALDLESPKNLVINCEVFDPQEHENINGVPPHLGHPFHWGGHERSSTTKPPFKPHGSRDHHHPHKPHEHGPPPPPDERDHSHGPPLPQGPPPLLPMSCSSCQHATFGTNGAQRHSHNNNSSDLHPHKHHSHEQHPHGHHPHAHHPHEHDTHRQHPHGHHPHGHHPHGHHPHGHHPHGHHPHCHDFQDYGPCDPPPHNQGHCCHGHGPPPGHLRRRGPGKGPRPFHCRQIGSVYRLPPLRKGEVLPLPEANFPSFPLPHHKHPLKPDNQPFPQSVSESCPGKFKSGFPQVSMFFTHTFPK
Protocol text: sandwich ELISA, HRG captured by solid phase 88-2E
Recorded metric: absorbance at 450 nm

Query :: Given the binder anti-HRG monoclonal antibody 3-4E (antibody, V domains shown, Mouse (BALB/c) hybridoma monoclonal, Protein A purified; biotin-labeled when used as detection antibody) VH: QVQLQQSGAELMKPGASVKISCKATGYTFSTFWMEWVKQRPGHGLEWIGEILPGSGNANYNEKFKGKATFTADTSSNTAYMQLSSLTSEDSAVYYCAIHYYGYGFAYWGQGTLVTVSA VL: DNVLTQSPAIMSASLGERVTMTCTASSSVSSSYLHWYQQKPGSSPKLWIYTTSNLASGVPVRFSGSGSGTSYSLTISSMEAEDAATYYCHQYHRSPWTFGGGTKLEIK , what is its reported absorbance at 450 nm?
Result :: < 1 OD

Query :: What do you get for anti-HRG monoclonal antibody 50-6C-2A (antibody, V domains shown, Mouse hybridoma monoclonal) VH: EVQLQESGPGLVKPSQSLSLTCTVTGYSITSDYAWNWIRQFPGNKLEWMGYISYSGSTNYNPSLKSRISITRDTSKNQFFLQLNSVTTEDTATYYCASASYRYAWFAYWGQGTLVTVST VL: DIQMTQTTSSLSASLGDRVTISCRASQDISNYLNWYQQKPDGTVKLLIYYTSRLHSGVPSRFSGSGSGTDYSLTISNLEQEDIGTYFCQQGNTLPTFGGGTKLEIK ?
Result :: < 1 OD

Query :: Same for anti-HRG monoclonal antibody 75-2D (antibody, V domains shown, Mouse hybridoma monoclonal; also called clone No. 75-2D) VH: QVQLQQSGAELMKPGASVKISCKATGYTFSSYWIEWVKQRPGHGLEWIGEILPGSGRTNYNEKFKGKATFTADTSSNTAYMQLSSLTSEDSAVYYCARYSYFYYFDYWGQGTTLTVSS VL: DNVLTQSPAIMSASLGERVTMTCTASSSVSSSYLHWYQQKPGSSPKLWIYSTSNLASGVPARFSGSGSGTSYSLTISSMEAEDAATYYCHQYHRSPWTFGGGTKLEIK
Result :: < 1 OD
